Provenance of the data: PubChem BioAssay

test: growth suppression of beta-catenin knockout HCT116, pilot screen, human colon tumor cells (AID 823); conditions: CellTiter-Glo, 60 h, at 10 µM;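 note: 0% = wells killed by 20 µM Hyamine and 100% = untreated DMSO cell wells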
Results filed as inconclusive are left out. Activity calls are given as the source filed them.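 Rule for the calls: active = cell viability at or below a set limit in both duplicate runs, the limit being the all-compound median minus 4 SD (cut at about 23% in these data, passing the limit was not always enough); inconclusive = no clear call, values can overlap the other calls; inactive = the rest.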
Classes used: label 1 = active, label 0 = inactive

> print(dat)
                                    compound  discrete.label
 1             CC(=NCCc1ccccc1)C1=C(O)CSC1=O         label 0
 2       CCn1nnc(NC(=O)c2ccc(C(C)(C)C)cc2)n1         label 0
 3  Cc1nc2ccccn2c1/C(O)=C1\C(=O)C(=O)N(CCCN(C)C)C1c1ccc(Cl)cc1 (stereo not given)         label 0
 4  Cc1c(NC(=O)CCCCCN2C(=O)C3C4C=CC(C4)C3C2=O)c(=O)n(-c2ccccc2)n1C (stereo not given)         label 0
 5  CCOC(=O)C(C(=O)OCC)c1cc(Br)c2noc3c2c1C(=O)c1ccccc1-3         label 1
 6  O=C(C1CCC(Cn2c(=O)[nH]c3ccccc3c2=O)CC1)N1CCN(c2ccccc2)CC1 (stereo not given)         label 0
 7    Cc1cc(C)n(CC(=O)n2c3ccccc3c3ccccc32)n1         label 0
 8  CCC1CCCCN1C(=O)CSc1nnc(-c2cccc(Cl)c2)o1 (stereo not given)         label 0
 9  Cc1ccc(CCN2C(=O)CCC2(C)C(=O)NC2CCCC2)cc1 (stereo not given)         label 0
10  O=C(C1CCCN(c2nnc(-n3cccc3)s2)C1)N1CCN(c2ccccc2)CC1 (stereo not given)         label 0

----------
assay: viability gain of MRP-1-high H69AR cells under doxorubicin, pilot screen, MRP-1 activator project, CellTiter-Glo, duplicate (AID 807); details: H69AR viability with doxorubicin, CellTiter-Glo luminescence; at 10 µM; active compounds read high;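 note: compound pretreatment 18-22 h then 72 h combined with doxorubicin; 0% = doxorubicin alone and 100% = vehicle without doxorubicin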
measure: viability increase (%)

> print(dat)
                                   compound  unit.descriptor  numeric.value
1  Cc1cc(C)c2c(=O)[nH]n(C3CCOC(C)(C)C3)c2n1 (stereo unspecified)                %          -0.16
2  CC(C)(C)NC(=O)C1CN(S(=O)(=O)c2ccccc2)CCN1S(=O)(=O)c1ccccc1 (stereo unspecified)                %          -1.07
3    Brc1ccc(-c2noc(COc3ccc4c(c3)CCC4)n2)o1                %           2.86
4            C=CCNc1oc(COc2ccc(C)cc2)nc1C#N                %           4.36
5  O=C(NC(Nc1ncccn1)C(=O)c1ccccc1)c1ccccc1 (stereo unspecified)                %          -0.49
6  Cc1ccc2nc(NC(=O)C3CCN(S(=O)(=O)c4ccc5c(c4)oc(=O)n5C)CC3)sc2c1                %           1.75

----------
experiment: growth suppression of beta-catenin knockout HCT116, pilot screen, human colon tumor cells (AID 823); settings: CellTiter-Glo, 60 h, at 10 µM, active compounds read low;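 note: 0% = wells killed by 20 µM Hyamine and 100% = untreated DMSO cell wells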
Results filed as inconclusive are left out.
# maps each entry to its viability
measure: viability (%)

> print(dat)
                                   compound  unit.descriptor  numeric.value
1  CCOc1cc2c(cc1OCC)C(c1ccc(O)c(OC)c1)NCC2 (stereo unspecified)                %           75.3
2       CSc1cccc(NS(=O)(=O)c2cccc3nsnc23)c1                %           88.6
3  O=S(=O)(NCCc1cn2ccccc2n1)c1ccc2c(c1)OCCO2                %            105
4      O=C(NCC1(c2ccccc2)CCOCC1)c1ccc(Br)o1                %             93
5  COc1ccc(Cn2c(=O)[nH]c3cc(C(=O)NCCCN4CCCC4=O)ccc3c2=O)cc1                %           91.6
6  Cn1c(=O)c2cc(S(=O)(=O)NC(C(=O)NCc3cccnc3)c3ccccc3)ccc2n(C)c1=O (stereo unspecified)                %           91.2
